procedure_text: reduction of polyQ htt aggregates in cells – imaging, exon1htt(103Q)mCFP cells, high-content imaging, primary screen (AID 483);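 note: compound exposure lasted 3 days before fixation; percent of the per-plate median nuclei count of sample wells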
measurement_parameters: exon1htt(103Q)mCFP cell line, aggregate imaging, at 2 µM; measured here: cell count, toxicity
Would you mind telling me the reported nuclei count of each entry?
Numbers only, in %.

Please review the following examples before continuing.
CC1(C)Cc2noc(N)c2C(C)(C)N1OC(=O)c1cccs1 | 110
Cc1cccc2cc(C(c3nnnn3C(C)(C)C)N3CCN(C(=O)c4ccco4)CC3)c(=O)[nH]c12 (stereo not given) | 96.1
COc1ccc(-c2nnc3ccc(SC(C(C)=O)C(C)=O)nn23)cc1OC | 100
C=CCOC(=O)C(C#N)c1nc2ccccc2nc1N1CCN(Cc2ccccc2)CC1 (stereo not given) | 94.6
CCOC(=O)C1CCN(C(=O)CSc2n[nH]c(=O)[nH]c2=O)CC1 | 88.6
Nc1c(C2=NCCO2)nnn1Cc1ccccc1 | 79.3
CCOC(=O)Cn1nnnc1CN(Cc1ccc(OC)cc1)Cc1cc2cc(C)cc(C)c2[nH]c1=O | 117
CCC(C)C(NC(=O)C1CCC(C)CC1)C(=O)NCc1cccnc1 (stereo not given) | 103

Look up nuclei count for the entries below, preserving their order.
1. Cc1cc(C)nc(N2CCCC(C(=O)Nc3ccc4c(c3)OCO4)C2)n1 (stereo not given)
2. CCCCC(c1nnnn1CS(=O)(=O)c1ccc(C)cc1)N1CCN(c2ccccc2)CC1 (stereo not given)

(A)
1. 71.5
2. 100

---

Can you tell me inhibition for the items I'm about to list?
procedure_text: inhibitors of TNFa-induced NFkB p65 translocation, primary screen, imaging, HUVEC, MLSMR starter and 10KST1 sets (AID 438);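 note: compound added about 3h40 before a 20 min TNFalpha stimulation; signal is the nuclear over cytoplasmic p65 intensity ratio per well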
measurement_parameters: HUVEC TNFa-induced p65 nuclear translocation; at 2 µM, stronger effect = higher value, 0% TNFa-plus-vehicle, 100% no-TNFa wells
One number for each entry, in %.

CCSc1nc2c(c(=O)n(C)c(=O)n2C)n1Cc1ccc(Cl)cc1 | 3.3
CC(=O)SCC(=O)N=c1sc2cc(F)ccc2n1C | 1.1

For each of the molecules below, state inhibition.
1. O=C(O)c1c[nH]c2ccc(S(=O)(=O)N3CCN(c4ccc(F)cc4)CC3)cc2c1=O
2. CS(=O)(=O)N(CC(=O)NCc1ccccn1)c1ccc2c(c1)OCCO2
3. CCOP(=O)(c1ccc(N(C)C)cc1)C(O)c1cc(OC)c(OC)c(OC)c1 (stereo not drawn)
4. CN(C)C(=O)C12CCC(C)(c3nc4ccccc4nc31)C2(C)C (stereo not drawn)
5. COc1cccc(C2C(C#N)=C(N)OC3=C2C(=O)CCC3)c1OC(=O)c1ccco1 (stereo not drawn)
6. Cc1ccc(-c2cc(C(F)(F)F)n3ncc(C(=O)O)c3n2)cc1
7. Cc1ccc(S(=O)(=O)N2CCOCC2)cc1C(=O)Nc1ccc(-c2cn3ccsc3n2)cc1

(A)
-1.1
-7.5
-0.6
-6.5
4.7
3.1
-6.3

---

procedure_text: loss of swimming-algae plug formation – whole organism, Chlamydomonas reinhardtii, WT vs cilia-less mutant, absorbance, 96-well, primary screen (AID 463189);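 note: 0% = wild type cc124 cells in DMSO and 100% = ciliumless bld1 mutant cells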
measurement_parameters: Chlamydomonas reinhardtii gravitaxis, OD600 absorbance, 2 days; at 10 µM; stronger effect = higher value
# binarize inhibition: threshold 10% inclusive, high side 1, low side -1

Record excerpt, results attached:
CN1C2CCC1CC(NC(=O)c1nn(C)c3ccccc13)C2 (centres undefined) | 1
CN[C@H](CC(C)C)C(=O)N[C@H]1C(=O)N[C@@H](CC(N)=O)C(=O)N[C@H]2C(=O)N[C@H]3C(=O)N[C@H](C(=O)N[C@H](C(=O)O)c4cc(O)cc(O)c4-c4cc3ccc4O)[C@H](O)c3ccc(c(Cl)c3)Oc3cc2cc(c3O[C@@H]2O[C@H](CO)[C@@H](O)[C@H](O)[C@H]2O[C@H]2C[C@](C)(N)[C@H](O)[C@H](C)O2)Oc2ccc(cc2Cl)[C@H]1O | 1
NC(=O)NO | -1
O=C(O)CCC(C(=O)O)N1C(=O)c2ccccc2C1=O (centres undefined) | -1
CC(C)(Oc1ccc(C2CC2(Cl)Cl)cc1)C(=O)O (centres undefined) | -1

(Q) Is inhibition at least 10%? Consider O=C(O)C1CN(CCCP(=O)(O)O)CCN1 (centres undefined)
(A) -1

(Q) Dear colleague, could you confirm whether O=[N+]([O-])c1ccc(CSc2ncnc3c2ncn3[C@@H]2O[C@H](CO)[C@H](O)C2O)cc1 (some centres undefined) has inhibition at or above 10%?
(A) -1

(Q) Assess whether reported inhibition for "CC(C)NNC(=O)c1ccncc1" sits at 10% or higher.
(A) -1

(Q) Please indicate if the recorded inhibition for "CC1(C)CC(=O)C=C(NCCO)C1" meets or exceeds 10%.
(A) 1
